experiment: Cytotoxicity against human HepG2(2.2.15) cells; type: cell-based
Entries whose CC50 is below 70 µM take MET; entries at or above 70 µM take NOT MET.

Dear reviewer, please state whether CCCCCn1cc(C(=O)c2ccc(OC)cc2O)ccc1=O has CC50 strictly beneath 70 µM.
NOT MET

Regarding COc1ccc(/C(=N/Cc2ccccc2F)c2ccc(=O)n(Cc3ccccc3F)c2)c(O)c1 , kindly confirm whether its CC50 is beneath 70 µM.
MET

Does this compound meet the criterion CC50 < 70 µM? COc1ccc(/C(=N/Cc2cccc(F)c2)c2ccc(=O)n(Cc3cccc(F)c3)c2)c(O)c1
MET

Lab note: confirm whether the reported CC50 for this compound is below 70 µM, equality not counting. compound: CCCn1cc(C(=O)c2ccc(OC)cc2O)ccc1=O
NOT MET

Hi there! Is CC50 for COc1ccc(/C(=N/Cc2ccc(C)cc2)c2ccc(=O)n(Cc3ccc(C)cc3)c2)c(O)c1 below 70 µM, do you know?
MET

Please state whether CC50 is below 70 µM for COc1ccc(/C(=N/C2CC2)c2ccc(=O)n(C3CC3)c2)c(O)c1
NOT MET

CC50 under 70 µM? Item: COc1ccc(C(=O)c2ccc(=O)n(-c3ccccc3C)c2)c(O)c1
NOT MET

Is it true that CC50 reported for COc1ccc(C(=O)c2ccc(=O)n(-c3ccc(Cl)cc3)c2)c(O)c1 is less than 70 µM?
NOT MET

Is 70 µM strictly greater than the compound's reported CC50? compound: CCCCn1cc(C(=O)c2ccc(OC)cc2O)ccc1=O
MET

Dear reviewer, please state whether COc1ccc(C(=O)c2ccc(=O)n(-c3cc(C)ccc3C)c2)c(O)c1 has CC50 strictly beneath 70 µM.
MET

Is 70 µM strictly greater than the compound's reported CC50? compound: COc1ccc(C/N=C(\c2ccc(=O)n(Cc3ccc(OC)cc3)c2)c2ccc(OC)cc2O)cc1
MET

Please check: CC50 for COc1ccc(C(=O)c2ccc(=O)n(-c3ccccc3OC)c2)c(O)c1 , strictly under 70 µM or not?
NOT MET

State whether 70 µM exceeds CC50 recorded for COc1ccc(/C(=N/C2CCCCC2)c2ccc(=O)n(C3CCCCC3)c2)c(O)c1 .
NOT MET

hey, is CC50 for C=CCn1cc(C(=O)c2ccc(OC)cc2O)ccc1=O lower than 70 µM or not?
NOT MET

Field: below-cutoff. Rule: recorded CC50 strictly less than 70 µM. Subject: CCCC/N=C(\c1ccc(=O)n(CCCC)c1)c1ccc(OC)cc1O
MET

Regarding COc1ccc(/C(=N/Cc2ccc(F)c(F)c2)c2ccc(=O)n(Cc3ccc(F)c(F)c3)c2)c(O)c1 , kindly confirm whether its CC50 is beneath 70 µM.
NOT MET

Item C=CC/N=C(\c1ccc(=O)n(CC=C)c1)c1ccc(OC)cc1O : CC50 beneath 70 µM, strictly?
MET

Does the reported CC50 of the following compound sit strictly below 70 µM? COc1ccc(C(=O)c2ccc(=O)n(-c3cccc(C)c3)c2)c(O)c1
NOT MET

Confirm or reject: CC50 of COc1ccc(C(=O)c2ccc(=O)n(-c3ccc(F)cc3)c2)c(O)c1 lies strictly below 70 µM
NOT MET

Does CCC/N=C(\c1ccc(=O)n(CCC)c1)c1ccc(OC)cc1O have CC50 strictly under 70 µM?
NOT MET

Threshold test, CC50 < 70 µM: COc1ccc(C(=O)c2ccc(=O)n(-c3ccccc3)c2)c(O)c1
NOT MET
